- System under test: SOS1 (Homo sapiens, UniProt Q07889)
- Construct: adding equal amounts of HIS-SOS1cat (160 nM; Cytoskeleton, US); His; purchased Cytoskeleton, US
- Sequence (Q07889 564-1049 limits assumed): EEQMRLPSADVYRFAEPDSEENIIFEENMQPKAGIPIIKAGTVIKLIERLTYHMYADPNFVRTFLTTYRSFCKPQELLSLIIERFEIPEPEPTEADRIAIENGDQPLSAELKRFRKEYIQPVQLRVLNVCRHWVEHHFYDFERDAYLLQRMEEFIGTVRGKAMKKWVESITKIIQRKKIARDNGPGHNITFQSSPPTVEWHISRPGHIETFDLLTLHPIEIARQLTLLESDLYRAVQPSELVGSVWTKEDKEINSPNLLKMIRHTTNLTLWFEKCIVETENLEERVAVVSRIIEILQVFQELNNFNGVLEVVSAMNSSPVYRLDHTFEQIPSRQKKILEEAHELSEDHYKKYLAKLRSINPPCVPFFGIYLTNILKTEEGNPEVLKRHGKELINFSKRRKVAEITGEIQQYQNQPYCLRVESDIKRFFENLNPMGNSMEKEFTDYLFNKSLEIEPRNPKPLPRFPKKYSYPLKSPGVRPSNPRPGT
- Protocol summary: SOS-catalyzed nucleotide exchange assay (HTRF, SOS1-mediated GTP loading of KRAS G12D)
- Assay type: biochemical
- Details: GST-KRAS G12D, HIS-SOS1cat, EDA-GTP-DY-647P1; compound 128 pM to 10 µM; read-out: SOS-catalyzed nucleotide exchange assay (IC50 range, Grade)
pIC50: −log10 of the molar value.
Measured quantity: pIC50

Field: example entries. Status: answers known.
Compound: C[C@@H](NC(=O)c1ccc(=O)n(-c2ccccc2)n1)c1ccc(Br)cc1 [Example 6]
pIC50: < 5.00

Compound: C[C@@H](NC(=O)c1ccc(=O)n(C2CCCCC2)n1)c1cc(N)cc(C(F)(F)F)c1 [Example 116]
pIC50: 5.00 to 6.00

(Q) Name the recorded pIC50 for C[C@@H](NC(=O)c1ccc(=O)n(-c2ccccc2)n1)c1cccc([Si](C)(C)C)c1 [Example 61] .
(A) 5.00 to 6.00
